molecular target: Adenosine receptor A2a (Homo sapiens) (UniProt P29274); assay: Displacement of [3H]ZM 241385 from human adenosine A2A receptor expressed in CHO cells at 10 uM after 60 mins by scintillation counting; format: cell-based
Sequence (P29274 whole entry): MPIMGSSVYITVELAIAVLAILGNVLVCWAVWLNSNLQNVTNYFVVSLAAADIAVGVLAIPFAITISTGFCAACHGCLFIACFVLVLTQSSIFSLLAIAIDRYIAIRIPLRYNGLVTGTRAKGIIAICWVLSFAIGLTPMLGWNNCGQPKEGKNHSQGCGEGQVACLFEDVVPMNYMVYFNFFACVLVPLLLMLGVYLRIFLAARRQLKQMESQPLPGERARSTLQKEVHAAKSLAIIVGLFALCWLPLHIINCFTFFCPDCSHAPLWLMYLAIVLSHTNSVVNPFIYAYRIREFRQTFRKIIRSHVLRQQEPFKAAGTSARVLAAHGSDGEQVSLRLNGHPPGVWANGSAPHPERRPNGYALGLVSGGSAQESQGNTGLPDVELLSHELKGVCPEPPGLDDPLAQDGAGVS
ASSAY_METRIC: inhibition (%)

Nc1scc(CN2CCC3(CC2)Oc2cccc(F)c2O3)c1C(=O)c1ccc(Cl)cc1	1

I. CN(Cc1csc(N)c1C(=O)c1ccc(Cl)cc1)c1ccc(F)cc1
II. CN(Cc1csc(N)c1C(=O)c1ccc(Cl)cc1)c1ccccc1
III. Nc1scc(CN2CCn3c(cc4cc(Cl)ccc43)C2)c1C(=O)c1ccc(Cl)cc1
Q: Ascending sort, inhibition. Could you list the labels in the order requested?
A: III, II, I
(III: 0%, II: 1%, I: 2%)

====

biological target: Adenosine receptor A2a (Homo sapiens); test: Displacement of [3H]ZM 241385 from human adenosine A2A receptor expressed in CHO cells at 10 uM after 60 mins by scintillation counting; assay type: cell-based
ASSAY_METRIC: inhibition (%)

a. CC(C)N(Cc1csc(N)c1C(=O)c1ccc(Cl)cc1)C(C)C
b. CCCN(CCC)Cc1c(-c2ccccc2)sc(N)c1C(=O)c1ccc(Cl)cc1
c. Nc1scc(CN2CCN3c4ccccc4CC3C2)c1C(=O)c1ccc(Cl)cc1 (stereo not drawn)
Q: Rank the items above by inhibition, largest value first. Could you list the labels in the order requested?
A: c, b, a
(c: 3%, b: 1%, a: 0%)

====

Molecular target: UniProt P30542
Sequence (whole entry): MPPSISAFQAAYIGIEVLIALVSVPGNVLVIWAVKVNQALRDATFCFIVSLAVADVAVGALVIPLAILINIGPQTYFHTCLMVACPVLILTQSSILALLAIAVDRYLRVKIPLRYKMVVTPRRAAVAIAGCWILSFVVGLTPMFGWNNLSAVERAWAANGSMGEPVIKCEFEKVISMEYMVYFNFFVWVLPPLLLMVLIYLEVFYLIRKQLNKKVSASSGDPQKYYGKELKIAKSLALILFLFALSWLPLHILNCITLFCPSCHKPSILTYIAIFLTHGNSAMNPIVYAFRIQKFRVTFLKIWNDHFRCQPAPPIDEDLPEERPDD
Experiment: Allosteric enhancement of human adenosine A1 receptor expressed in CHO cells assessed as inhibition of forskolin-induced cAMP production at 10 uM after 10 mins
Format: functional, cell-based
ASSAY_METRIC: inhibition (%)

Record excerpt, results attached:
CC(C)c1ccc(OCc2csc(N)c2C(=O)c2ccc(Cl)cc2)cc1	15
Cn1c2c(c3cc(Cl)ccc31)CN(Cc1csc(N)c1C(=O)c1ccc(Cl)cc1)CC2	24
Nc1scc(COc2ccc(F)cc2)c1C(=O)c1ccc(Cl)cc1	10
Cc1cccc2c1OC1(CCN(Cc3csc(N)c3C(=O)c3ccc(Cl)cc3)CC1)O2	46

1. Nc1scc(CN2CCc3[nH]c4ccccc4c3C2)c1C(=O)c1ccc(Cl)cc1
2. Nc1scc(CN2CCn3c(cc4cc(F)ccc43)C2)c1C(=O)c1ccc(Cl)cc1
3. CCCCN(C)Cc1c(-c2ccccc2)sc(N)c1C(=O)c1ccc(Cl)cc1
Q: Ascending sort, inhibition. Could you list the labels in the order requested?
A: 1, 3, 2

====

target: Adenosine receptor A1 (Homo sapiens) (UniProt P30542); experiment: Allosteric enhancement of human adenosine A1 receptor expressed in CHO cells assessed as increase of CCPA Ki at 10 uM after 90 mins by [3H]DPCPX radioligand binding assay; assay type: cell-based
ASSAY_METRIC: fold change (FC)

CN(Cc1c(-c2ccccc2)sc(N)c1C(=O)c1ccc(Cl)cc1)C(C)(C)C	1.3

A. Nc1scc(CSc2ccccc2)c1C(=O)c1ccc(Cl)cc1
B. C=CCN(CC=C)Cc1c(Br)sc(N)c1C(=O)c1ccc(Cl)cc1
Q: Two entries are listed, A and B . Which one carries the higher fold change (FC)? When you have decided, please share the label of that item.
A: A

====

Target: Adenosine receptor A1 (Homo sapiens) (UniProt P30542)
Sequence (whole entry): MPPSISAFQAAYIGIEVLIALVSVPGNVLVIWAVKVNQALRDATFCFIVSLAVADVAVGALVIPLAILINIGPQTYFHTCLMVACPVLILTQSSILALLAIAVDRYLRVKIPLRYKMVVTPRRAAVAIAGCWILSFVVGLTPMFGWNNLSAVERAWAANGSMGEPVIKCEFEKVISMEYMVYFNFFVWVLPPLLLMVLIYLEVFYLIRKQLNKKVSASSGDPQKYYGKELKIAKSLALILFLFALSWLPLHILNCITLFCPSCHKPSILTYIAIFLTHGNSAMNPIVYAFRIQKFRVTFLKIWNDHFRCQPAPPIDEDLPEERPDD
Experiment: Allosteric enhancement of human adenosine A1 receptor expressed in CHO cells assessed as inhibition of forskolin-induced cAMP production at 10 uM after 10 mins
Format: functional, cell-based
ASSAY_METRIC: inhibition (%)

Cn1c2c(c3ccccc31)CN(Cc1csc(N)c1C(=O)c1ccc(Cl)cc1)CC2	28

P. Nc1scc(CN2CCc3ccccc3C2)c1C(=O)c1ccc(Cl)cc1
Q. Cc1sc(N)c(C(=O)c2cccc(C(F)(F)F)c2)c1C
R. Nc1scc(CN2CCN3c4ccc(Cl)cc4CC3C2)c1C(=O)c1ccc(Cl)cc1 (stereo not drawn)
S. CC(C)N(Cc1c(Br)sc(N)c1C(=O)c1ccc(Cl)cc1)C(C)C
T. Nc1scc(CN2CCn3c(cc4cc(Cl)ccc43)C2)c1C(=O)c1ccc(Cl)cc1
Q: Order the records by inhibition, with each subsequent value no larger than the one before. Could you list the labels in the order requested?
A: T, P, Q, S, R
(T: 64%, P: 41%, Q: 18%, S: 12%, R: 7%)

P. CN(Cc1ccccc1)Cc1csc(N)c1C(=O)c1ccc(Cl)cc1
Q. Nc1scc(CSc2ccccc2)c1C(=O)c1ccc(Cl)cc1
R. Nc1scc(COc2ccccc2)c1C(=O)c1ccc(Cl)cc1
Q: Ascending sort, inhibition. Could you list the labels in the order requested?
A: R, Q, P

I. CCN(CC)Cc1c(-c2ccccc2)sc(N)c1C(=O)c1ccc(Cl)cc1
II. Nc1scc(CN2CCC3(CC2)Oc2ccccc2O3)c1C(=O)c1ccc(Cl)cc1
III. CCN(CC)Cc1csc(N)c1C(=O)c1ccc(Cl)cc1
IV. Nc1scc(CN2CCn3c(cc4ccccc43)C2)c1C(=O)c1ccc(Cl)cc1
V. CC(C)N(Cc1c(-c2ccccc2)sc(N)c1C(=O)c1ccc(Cl)cc1)C(C)C
Q: Order the records by inhibition, with each subsequent value no larger than the one before. Could you list the labels in the order requested?
A: IV, II, I, V, III
(IV: 66%, II: 45%, I: 25%, V: 9%, III: 5%)

====

biological target: Adenosine receptor A1 (Homo sapiens) (UniProt P30542); test: Allosteric enhancement of human adenosine A1 receptor expressed in CHO cells assessed as increase of CCPA Ki at 10 uM after 90 mins by [3H]DPCPX radioligand binding assay; type: cell-based
ASSAY_METRIC: fold change (FC)

Record excerpt, results attached:
CC(C)N(Cc1c(Br)sc(N)c1C(=O)c1ccc(Cl)cc1)C(C)C	1.4
Nc1scc(CN2CCN3c4ccccc4CC3C2)c1C(=O)c1ccc(Cl)cc1 (stereo not given)	7.6
CN(C)Cc1c(-c2ccccc2)sc(N)c1C(=O)c1ccc(Cl)cc1	1
CCCN(CCC)Cc1c(-c2ccccc2)sc(N)c1C(=O)c1ccc(Cl)cc1	2.5

I. Nc1scc(CN2CCC3(CC2)Oc2cccc(F)c2O3)c1C(=O)c1ccc(Cl)cc1
II. CN(Cc1ccccc1)Cc1c(-c2ccccc2)sc(N)c1C(=O)c1ccc(Cl)cc1
III. Nc1sc(-c2ccccc2)c(CN(C2CCCCC2)C2CCCCC2)c1C(=O)c1ccc(Cl)cc1
IV. CCN(Cc1csc(N)c1C(=O)c1ccc(Cl)cc1)c1ccccc1
Q: Order the records by fold change (FC), with each subsequent value no larger than the one before. Could you list the labels in the order requested?
A: I, III, IV, II

1. C=CCN(CC=C)Cc1c(-c2ccccc2)sc(N)c1C(=O)c1ccc(Cl)cc1
2. CC(C)c1ccc(OCc2csc(N)c2C(=O)c2ccc(Cl)cc2)cc1
Q: Of 1 versus 2 , which is the one with smaller reported fold change (FC)? When you have decided, please share the label of that item.
A: 2
(2: 1.5, 1: 3.9)

====

Molecular target: Adenosine receptor A1 (Homo sapiens) (UniProt P30542)
Sequence (whole entry): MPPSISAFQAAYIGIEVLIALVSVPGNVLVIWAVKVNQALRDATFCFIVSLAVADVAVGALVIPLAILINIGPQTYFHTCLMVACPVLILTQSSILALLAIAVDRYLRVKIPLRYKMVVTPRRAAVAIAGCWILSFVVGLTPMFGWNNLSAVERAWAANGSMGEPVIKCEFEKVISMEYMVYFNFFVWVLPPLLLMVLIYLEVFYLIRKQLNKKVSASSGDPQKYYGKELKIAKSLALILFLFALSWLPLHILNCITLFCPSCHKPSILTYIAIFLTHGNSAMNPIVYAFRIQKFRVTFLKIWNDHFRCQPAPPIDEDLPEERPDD
Assay: Allosteric enhancement of human adenosine A1 receptor expressed in CHO cells assessed as increase of [3H]CCPA Bmax at 10 uM after 90 mins
Type: cell-based
ASSAY_METRIC: fold change (FC)

CC(C)c1ccc(OCc2csc(N)c2C(=O)c2ccc(Cl)cc2)cc1	1.8
CN(Cc1ccccc1)Cc1c(-c2ccccc2)sc(N)c1C(=O)c1ccc(Cl)cc1	1.1
CN(Cc1ccccc1)Cc1csc(N)c1C(=O)c1ccc(Cl)cc1	4.4
Cc1ccc2c(c1)OC1(CCN(Cc3csc(N)c3C(=O)c3ccc(Cl)cc3)CC1)O2	5.1
CN(Cc1csc(N)c1C(=O)c1ccc(Cl)cc1)c1ccccc1	2.4
CCN(CC)Cc1csc(N)c1C(=O)c1ccc(Cl)cc1	1
Nc1scc(CN2CCn3c(cc4ccccc43)C2)c1C(=O)c1ccc(Cl)cc1	7.5
CN(Cc1csc(N)c1C(=O)c1ccc(Cl)cc1)c1ccc(C(F)(F)F)cc1	3.2
CN(Cc1csc(N)c1C(=O)c1ccc(Cl)cc1)c1ccc(Cl)cc1	2.5
CCCCN(C)Cc1c(-c2ccccc2)sc(N)c1C(=O)c1ccc(Cl)cc1	1.1

1. Cn1c2c(c3cc(Cl)ccc31)CN(Cc1csc(N)c1C(=O)c1ccc(Cl)cc1)CC2
2. CC(C)N(Cc1csc(N)c1C(=O)c1ccc(Cl)cc1)C(C)C
Q: Of 1 versus 2 , which is the one with smaller reported fold change (FC)? When you have decided, please share the label of that item.
A: 2

A. Nc1sc(-c2ccccc2)c(CN2CCCCC2)c1C(=O)c1ccc(Cl)cc1
B. Cc1ccc(OCc2csc(N)c2C(=O)c2ccc(Cl)cc2)cc1
C. COc1ccc2c(c1)cc1n2CCN(Cc2csc(N)c2C(=O)c2ccc(Cl)cc2)C1
D. Nc1scc(CN2CCn3c(cc4cc(Cl)ccc43)C2)c1C(=O)c1ccc(Cl)cc1
Q: Order the records by fold change (FC), with each subsequent value no larger than the one before. Could you list the labels in the order requested?
A: D, C, A, B
